assay: Single dose PK in healthy subjects (Cohorts 1, 2, S1 and S2), plasma; format: in vivo, human; details: human, plasma, iv, 56 mg, 56 mg single IV infusion, healthy subjects; read-out: Ceoi Geo Mean
QUANTITY_MEASURED: concentration at 9 h (ng/mL)
Provide the reading as a plain figure in ng/mL.

Lab book: concentration at 9 h of COC(=O)N1CCC[C@H](NS(C)(=O)=O)[C@@H]1CO[C@H]1CC[C@@H](c2ccccc2)CC1 noted as 115

====

experiment: Single dose PK in patients with narcolepsy (Cohorts 5, 6 and 7), plasma; assay type: in vivo, human; conditions: human, plasma, intravenous, 11.2 mg, Cmpd A 11.2 mg; Median; Cohort 5, 6, 7
QUANTITY_MEASURED: Tmax (h)
Provide the reading as a plain figure in h.

Lab book: Tmax of COC(=O)N1CCC[C@H](NS(C)(=O)=O)[C@@H]1CO[C@H]1CC[C@@H](c2ccccc2)CC1 [Compound A] noted as 9

====

test: Single dose PK in healthy subjects (Cohorts 1, 2, S1 and S2), plasma; assay type: in vivo, human; settings: human, plasma, intravenous, 14 mg; 4 hr; read-out: Plasma concentration, Q3
QUANTITY_MEASURED: concentration at 4 h (ng/mL)
Provide the reading as a plain figure in ng/mL.

Lab book: concentration at 4 h of COC(=O)N1CCC[C@H](NS(C)(=O)=O)[C@@H]1CO[C@H]1CC[C@@H](c2ccccc2)CC1 noted as 40

====

assay: Single dose PK in healthy subjects (Cohorts 1, 2, S1 and S2), plasma; assay type: in vivo, human; conditions: human, plasma, intravenous, 28 mg; 3 hr; read-out: Plasma concentration, Q1
QUANTITY_MEASURED: concentration at 3 hr (ng/mL)
Provide the reading as a plain figure in ng/mL.

Lab book: concentration at 3 hr of COC(=O)N1CCC[C@H](NS(C)(=O)=O)[C@@H]1CO[C@H]1CC[C@@H](c2ccccc2)CC1 [Compound A] noted as 51.3

====

assay: Single dose PK in healthy subjects (Cohorts 1, 2, S1 and S2), plasma; type: in vivo, human; conditions: human, plasma, intravenous, 134.4 mg; 6 hr; read-out: Plasma concentration, Minimum
QUANTITY_MEASURED: concentration at 6 h
Please answer using the number first and the unit second.

Lab book: concentration at 6 h of COC(=O)N1CCC[C@H](NS(C)(=O)=O)[C@@H]1CO[C@H]1CC[C@@H](c2ccccc2)CC1 [Compound A] noted as 164 ng/mL

====

test: Single dose PK in healthy subjects (Cohorts 1, 2, S1 and S2), plasma; format: in vivo, human; conditions: human, plasma, intravenous, 180 mg; 2 hr; read-out: Plasma concentration, Median
QUANTITY_MEASURED: concentration at 2 hr (ng/mL)
Provide the reading as a plain figure in ng/mL.

Lab book: concentration at 2 hr of COC(=O)N1CCC[C@H](NS(C)(=O)=O)[C@@H]1CO[C@H]1CC[C@@H](c2ccccc2)CC1 [Compound A] noted as 292

====

assay: Single dose PK in healthy subjects (Cohorts 1, 2, S1 and S2), plasma; assay type: in vivo, human; settings: human, plasma, intravenous, 28 mg; 0.5 hr; read-out: Plasma concentration, Mean
QUANTITY_MEASURED: concentration at 0.5 hr (ng/mL)
Provide the reading as a plain figure in ng/mL.

Lab book: concentration at 0.5 hr of COC(=O)N1CCC[C@H](NS(C)(=O)=O)[C@@H]1CO[C@H]1CC[C@@H](c2ccccc2)CC1 noted as 34.4
